Biological target: human serum albumin (HSA) (Homo sapiens, UniProt P02768)
Construct: purchased Sigma (St. Louis, MO, USA)
Sequence (P02768 25-609): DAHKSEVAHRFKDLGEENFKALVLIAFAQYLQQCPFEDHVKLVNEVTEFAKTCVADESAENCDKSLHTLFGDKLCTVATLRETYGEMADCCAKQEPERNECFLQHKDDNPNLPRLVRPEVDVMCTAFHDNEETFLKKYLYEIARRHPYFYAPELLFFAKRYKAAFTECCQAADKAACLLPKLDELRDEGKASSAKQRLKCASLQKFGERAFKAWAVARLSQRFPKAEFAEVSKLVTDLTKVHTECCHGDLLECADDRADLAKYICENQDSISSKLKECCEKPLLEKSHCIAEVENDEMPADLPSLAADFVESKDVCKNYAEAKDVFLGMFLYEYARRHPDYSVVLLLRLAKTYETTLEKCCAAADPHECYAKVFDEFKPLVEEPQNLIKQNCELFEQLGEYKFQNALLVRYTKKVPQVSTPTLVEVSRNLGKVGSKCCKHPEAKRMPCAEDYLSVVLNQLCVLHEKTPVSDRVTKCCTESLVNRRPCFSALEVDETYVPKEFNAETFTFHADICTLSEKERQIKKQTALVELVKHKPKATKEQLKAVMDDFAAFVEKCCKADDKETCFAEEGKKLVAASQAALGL
Test: HSA fluorescence quenching (steady-state fluorescence titration)
Type: binding
Conditions: 35 °C
MEASUREMENT NAME: Kq, bimolecular quenching rate constant (M⁻¹ s⁻¹)
Give your result in M⁻¹ s⁻¹ as a bare value.

// assay human serum albumin (HSA) (Homo sapiens, UniProt P02768), entry `O=C(N/N=C/c1cccc2cc3ccccc3nc12)c1ccc(F)cc1` , Kq, bimolecular quenching rate constant value = 1.37e+13

// assay human serum albumin (HSA) (Homo sapiens, UniProt P02768), entry `O=C(N/N=C/c1cccc2cc3ccccc3nc12)c1ccc(Br)cc1` , Kq, bimolecular quenching rate constant value = 2.42e+13

// assay human serum albumin (HSA) (Homo sapiens, UniProt P02768), entry `O=C(N/N=C/c1cccc2cc3ccccc3nc12)c1ccc(Cl)cc1` , Kq, bimolecular quenching rate constant value = 2.62e+13

// assay human serum albumin (HSA) (Homo sapiens, UniProt P02768), entry `O=C(N/N=C/c1cccc2cc3ccccc3nc12)c1ccccc1` , Kq, bimolecular quenching rate constant value = 2.61e+13
